# measurementTarget: Rap guanine nucleotide exchange factor 4 (Homo sapiens)
# test: Confirmatory qHTS for antagonist of cAMP-regulated guanine nucleotide exchange factor 4 (EPAC2) (AID 1645885); also: nearly all actives have a fitted effect of over 25% in size
# details: EPAC2 Rap1B-BODIPY-GDP exchange fluorescence, biochemical; series mostly up to 12.7 µM
Results filed as inconclusive are left out. Calls of active or inactive are those of the source. Calls follow the shape of the dose curve; as a rule, active = well fitted inhibition curve with a large enough effect; inconclusive = small, poorly fitted or top-dose-only effect; inactive = no such curve, though single readings can be large or run the other way.
Please reply with one of these outcomes: 1 = active, -1 = inactive

compound	classAssignment
COc1ccc(C)cc1NC(=O)c1ccccc1NS(=O)(=O)c1ccc(Cl)s1	-1
NC1=CC(=O)C(=O)c2cccnc21	-1
O=C(N/N=C/c1ccc(O)c(O)c1)C1c2ccccc2Oc2ccccc21	-1
CCOC(=O)C1=CCN(S(=O)(=O)c2ccccc2Cl)C1c1ccc(Cl)c(Cl)c1 (stereo unspecified)	-1
Cc1cccc(N2C(=O)c3cccc4c(N(C)CCO)ccc(c34)C2=O)c1	-1

q: Recorded test outcome, item COc1ccc(-c2ncccc2OC(=O)C23CC4CC(CC(C4)C2)C3)cc1OC
a: -1

q: Recorded test outcome, item CC(Oc1ccc(Cl)cc1Cl)C(=O)NC1=NN(c2ccccc2)C(=O)C1 (stereo unspecified)
a: -1

q: Recorded test outcome, item O=C(Nc1sc2c(c1C(=O)O)CCCC2)c1ccc(Cl)cc1
a: -1

q: Recorded test outcome, item Cc1ccc(C)c(NC(=O)COC(=O)COc2cccc3c2OC(C)(C)C3)c1
a: -1

q: Recorded test outcome, item N#CC(C(=O)OC1CCCCC1)c1nc2ccccc2nc1N1CCOCC1 (stereo unspecified)
a: -1

q: Recorded test outcome, item CC1=Nc2ccccc2N=C(NC(=O)/C=C/C(=O)O)C1c1ccccc1 (stereo unspecified)
a: 1
